Source: patent US20230192831A1

Molecular target: recombinant human GREM1 (hGREM1-His; C-terminal 10His tagged, R&D, #5190-GR) (human) (UniProt O60565)
Sequence (O60565 other isoform, or with tags, fused parts or gaps limits assumed, form in doubt): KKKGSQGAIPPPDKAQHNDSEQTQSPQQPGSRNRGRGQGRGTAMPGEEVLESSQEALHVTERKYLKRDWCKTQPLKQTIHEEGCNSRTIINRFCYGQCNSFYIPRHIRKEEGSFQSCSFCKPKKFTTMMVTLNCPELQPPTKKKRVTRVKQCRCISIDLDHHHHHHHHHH
Assay: BLI Octet, captured mAb, 100 nM GREM1
OBSERVATION_TYPE: Binding Signal with 30 sec Association (nm)
Number in nm, nothing else.

Query: Which measured Binding Signal with 30 sec Association (nm) value corresponds to H4H6232P (antibody, human IgG4, V domains shown) VH: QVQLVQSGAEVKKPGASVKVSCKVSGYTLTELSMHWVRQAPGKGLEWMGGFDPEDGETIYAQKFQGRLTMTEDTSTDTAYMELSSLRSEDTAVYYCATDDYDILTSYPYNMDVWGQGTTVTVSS VL: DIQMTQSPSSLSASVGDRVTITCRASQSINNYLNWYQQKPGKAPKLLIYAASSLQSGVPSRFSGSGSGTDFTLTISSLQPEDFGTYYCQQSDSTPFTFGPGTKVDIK ?
Result: 0.33
